System: KM12 colon
Assay: NCI tumour cell line growth inhibition, 48 h
measured.parameter: TGI

Below: 3 molecules and their reported TGI.
ClCCCN1CCN(CCCl)CC1 ... > 1000 µM
Cc1cc2ncn(CC(=O)O)c2cc1C ... > 100 µM
COc1ccc(CCN2CCCn3c2nc2ccccc2c3=O)cc1 ... > 20.5 µM

Q. I would be grateful if you could share the reported TGI for `COc1cc2c(cc1OC)C(CCN)=NCC2` .
A. 40.2 µM

Q. I would be grateful if you could share the reported TGI for `CCOC(=O)c1ccc(N=Cc2ccc(N(CCC#N)S(=O)(=O)c3ccccc3)cc2C)cc1` .
A. > 100 µM

Q. I would be grateful if you could share the reported TGI for COC1CCCc2c(OC(C)=O)ccc(OC(C)=O)c21 (configuration not stated) .
A. > 100 µM

Q. I would be grateful if you could share the reported TGI for `O=C1/C(=C/c2ccc(F)cc2)COc2ccc(O)c(O)c21` .
A. 6.82 µM

Q. I would be grateful if you could share the reported TGI for `Cn1cc(-c2ccc3c4ccccc4n(C)c3c2)c2ccccc21` .
A. > 100 µM

The reported measurements were obtained from PubChem BioAssay (NCI).
